Every entry's value here was drawn from patent US6737383B1.

Test system: rape
assay_remarks: Test B pre/postemergence rape
Format: in vivo, Brassica napus
condition_parameters: Rate 1000 g/ha, Preemergence; scale 0 to 10 (0 no effect, 10 complete control)
Protocol: […] At the same time, these crop and weed species were also treated with postemergence applications of test chemicals formulated in the same manner. […] Treated plants and controls were maintained in a greenhouse for twelve to sixteen days, after which all species were compared to controls and visually evaluated. […]
measured_endpoint: Plant response rating, Rape
Respond using a number only.

compound | Plant response rating, Rape
CCOP(=O)(OCC)C(C)n1c(=O)on(C(=O)N(c2ccccc2)C(C)C)c1=O (centres unmarked) | 0
CCOC(=O)CC(C(=O)OCC)n1c(=O)on(C(=O)N(c2ccc(Cl)cc2)C(C)C)c1=O (centres unmarked) | 0

Exam item: May I ask what Plant response rating, Rape has been recorded for CC(C)N(C(=O)n1oc(=O)n(C2CCCC(C(F)(F)F)C2)c1=O)c1ccc(F)cc1 (centres unmarked) ?
Marked response: 0

Exam item: May I ask what Plant response rating, Rape has been recorded for CCOC(=O)C(C)N(C(=O)n1oc(=O)n(C(C)C)c1=O)c1ccc(F)cc1 (centres unmarked) ?
Marked response: 8

Exam item: May I ask what Plant response rating, Rape has been recorded for `CCOP(=O)(Cn1c(=O)on(C(=O)N(c2ccc(F)cc2)C(C)C)c1=O)OCC` ?
Marked response: 2

---

System: velvetleaf
assay_remarks: Test B pre/postemergence velvetleaf
Assay type: in vivo, Abutilon theophrasti
condition_parameters: Postemergence, Rate 500 g/ha; scale of 0 to 10 where 0 is no effect and 10 is complete control
measured_endpoint: Velvetleaf plant response rating

compound | system_name | measured_endpoint | result
CCN(C(=O)n1oc(=O)n(C2CCCCCC2)c1=O)C1CCCCC1 [Compound 429] | velvetleaf | Velvetleaf plant response rating | 2
C=C[Si](C)(C)Cn1c(=O)on(C(=O)N(c2ccc(Cl)cc2)C(C)C)c1=O [Compound 425] | velvetleaf | Velvetleaf plant response rating | 2
Cc1nc(Cl)sc1C(C)n1c(=O)on(C(=O)N(c2ccc(F)cc2F)C(C)C)c1=O (stereo not shown) [Compound 405] | velvetleaf | Velvetleaf plant response rating | 0

Now for another entry.
Exam item: What reported Velvetleaf plant response rating corresponds to CCOP(=O)(OCC)C(C)n1c(=O)on(C(=O)N(c2ccccc2)C(C)C)c1=O (stereo not shown) [Compound 448] on velvetleaf?
Marked response: 0

---

Tested on: morningglory
assay_remarks: Test B pre/postemergence morningglory
Format: in vivo, Ipomoea hederacea
condition_parameters: Preemergence, Rate 125 g/ha; scale 0 to 10 (0 no effect, 10 complete control)
Entries annotated with measured Plant response rating, Morningglory
Respond using a number only.

Worked examples follow.
compound | system_name | Plant response rating, Morningglory
Cc1cccc(C(C)C)c1-n1c(=O)on(C(=O)N(c2ccccc2)C(C)C)c1=O [Compound 66] | morningglory | 0
CC(C)N(C(=O)n1oc(=O)n(-c2cc(Cl)ccc2Cl)c1=O)c1ccc(F)cc1 [Compound 16] | morningglory | 0
CC(C)N(C(=O)n1oc(=O)n(Cc2ccccc2)c1=O)c1ccccc1 [Compound 94] | morningglory | 0
Cc1ccccc1-n1c(=O)on(C(=O)N(c2ccccc2)C(C)C)c1=O [Compound 36] | morningglory | 0

Now for another entry.
Exam item: May I ask what Plant response rating, Morningglory has been recorded for CC(C)N(C(=O)n1oc(=O)n(C(C)C)c1=O)c1ccc(F)cc1F [Compound 109] ?
Marked response: 5

---

Test system: smallflower flatsedge
assay_remarks: Test B flood test smallflower flatsedge
Type: in vivo, Cyperus difformis
condition_parameters: Rate 250 g/ha; Pre-emergence (flood test species); scale 0 to 10, 0 is no effect, 10 is complete control
Protocol: At the same time, these crop and weed species were also treated with postemergence applications of test chemicals formulated in the same manner. Plants ranged in height from 2 to 18 cm (1- to 4-leaf stage) for postemergence treatments. […] Treated plants and controls were maintained in a greenhouse for twelve to sixteen days, after which all species were compared to controls and visually evaluated. […]
Entries annotated with measured S. Flatsedge plant response rating
Respond using a number only.

Worked examples follow.
compound | quantitative_readout
CCOC(Cn1c(=O)on(C(=O)N(c2ccc(F)cc2)C(C)C)c1=O)OCC | 0
CC[Si](C)(C)Cn1c(=O)on(C(=O)N(c2ccc(F)cc2)C(C)C)c1=O | 0
CC(C)N(C(=O)n1oc(=O)n(C(C)C2CC2)c1=O)c1ccccc1 (stereo not drawn) | 9
CCCCn1c(=O)on(C(=O)N(c2ccccc2)C(C)C)c1=O | 0
CCC=CCn1c(=O)on(C(=O)N(c2ccccc2)C(C)C)c1=O | 0

Now for another entry.
Exam item: May I ask what S. Flatsedge plant response rating has been recorded for `CCOC(Cn1c(=O)on(C(=O)N(c2ccc(F)cc2F)C(C)C)c1=O)OCC` ?
Marked response: 0

---

Tested on: rape
assay_remarks: Test B pre/postemergence rape
Format: in vivo, Brassica napus
condition_parameters: Rate 250 g/ha, Postemergence; scale of 0 to 10 where 0 is no effect and 10 is complete control
Entries annotated with measured Plant response rating, Rape
Respond using a number only.

compound | quantitative_readout
CC(C)N(C(=O)n1oc(=O)n(CCC(F)(F)F)c1=O)c1ccc(Cl)cc1 [Compound 554] | 0

Exam item: May I ask what Plant response rating, Rape has been recorded for COCn1c(=O)on(C(=O)N(c2ccccc2)C(C)C)c1=O [Compound 562] ?
Marked response: 0

Exam item: May I ask what Plant response rating, Rape has been recorded for CC(=O)OCn1c(=O)on(C(=O)N(c2ccc(F)cc2)C(C)C)c1=O [Compound 292] ?
Marked response: 0

Exam item: May I ask what Plant response rating, Rape has been recorded for CCC=CCn1c(=O)on(C(=O)N(c2ccc(F)cc2)C(C)C)c1=O [Compound 286] ?
Marked response: 5

Exam item: May I ask what Plant response rating, Rape has been recorded for CCCCCCn1c(=O)on(C(=O)N(c2ccccc2)C(C)C)c1=O [Compound 558] ?
Marked response: 0

Exam item: May I ask what Plant response rating, Rape has been recorded for CC(C)N(C(=O)n1oc(=O)n(COCc2ccccc2)c1=O)c1ccccc1 [Compound 579] ?
Marked response: 0

Exam item: May I ask what Plant response rating, Rape has been recorded for CCN(C(=O)n1oc(=O)n(N(C)C)c1=O)C1CCCCC1 [Compound 274] ?
Marked response: 0

---

Entries annotated with measured Wheat plant response rating
Test system: wheat
assay_remarks: Test B pre/postemergence wheat
Format: in vivo, Triticum aestivum
condition_parameters: Rate 500 g/ha, Postemergence; scale 0 to 10
Respond using a number only.

Worked examples follow.
compound | Wheat plant response rating
CC(C)N(C(=O)n1oc(=O)n(C2CCCC(C(F)(F)F)C2)c1=O)c1ccc(F)cc1 (centres unmarked) | 3
CC(C)N(C(=O)n1oc(=O)n(C)c1=O)c1ccc(Cl)cc1 | 6
CC(C)N(C(=O)n1oc(=O)n(C(C)(C)C)c1=O)c1ccccc1 | 2
CC(C)N(C(=O)n1oc(=O)n([C@@H](C)c2ccccc2)c1=O)c1ccccc1 | 0

Now for another entry.
Exam item: May I ask what Wheat plant response rating has been recorded for `COc1ccccc1Cn1c(=O)on(C(=O)N(c2ccc(F)cc2)C(C)C)c1=O` ?
Marked response: 0

---

Test system: blackgrass
assay_remarks: Test B pre/postemergence blackgrass
Assay type: in vivo, Alopecurus myosuroides
condition_parameters: Preemergence, Rate 62 g/ha; scale of 0 to 10 where 0 is no effect and 10 is complete control
measured_endpoint: Blackgrass plant response rating
Respond using a number only.

Worked examples follow.
compound | system_name | Blackgrass plant response rating
CC(C)N(C(=O)n1oc(=O)n(C2CCCC(C(F)(F)F)C2)c1=O)c1ccc(F)cc1 (stereo not shown) | blackgrass | 0
COCC(C)N(C(=O)n1oc(=O)n(-c2ccccc2C)c1=O)c1ccc(F)cc1 (stereo not shown) | blackgrass | 0
CC(C)N(C(=O)n1oc(=O)n(CC(=O)C2CCC2)c1=O)c1ccc(F)cc1 | blackgrass | 0

Now for another entry.
Exam item: What reported Blackgrass plant response rating corresponds to `CCn1ncc(Cn2c(=O)on(C(=O)N(c3ccccc3)C(C)C)c2=O)c1Cl` on blackgrass?
Marked response: 1

---

Entries annotated with measured Plant response rating, Giant foxtail
System: giant foxtail
assay_remarks: Test B pre/postemergence giant foxtail
Type: in vivo, Setaria faberii
condition_parameters: Postemergence, Rate 500 g/ha; scale of 0 to 10 where 0 is no effect and 10 is complete control
Experimental: […] At the same time, these crop and weed species were also treated with postemergence applications of test chemicals formulated in the same manner. […] Treated plants and controls were maintained in a greenhouse for twelve to sixteen days, after which all species were compared to controls and visually evaluated. […]
Respond using a number only.

compound | Plant response rating, Giant foxtail
CCOC(=O)CC(C(=O)OCC)n1c(=O)on(C(=O)N(c2ccc(F)cc2)C(C)C)c1=O (centres unmarked) | 6
COCn1c(=O)on(C(=O)N(c2ccccc2)C(C)C)c1=O | 8
CCOP(=O)(Cn1c(=O)on(C(=O)N(c2ccc(F)cc2)C(C)C)c1=O)OCC | 2
CCCCCCn1c(=O)on(C(=O)N(c2ccccc2)C(C)C)c1=O | 8

Now for another entry.
Exam item: What reported Plant response rating, Giant foxtail corresponds to `CC(C)N(C(=O)n1oc(=O)n(CC(=O)C2CCC2)c1=O)c1ccc(F)cc1` on giant foxtail?
Marked response: 4
